Numbers sourced from patent US11021532.

targetUnderTest: SARS-CoV-2 Receptor Binding Domain (RBD) protein (SARS-CoV-2)
assayName: SPR (Carterra LSA), scFv captured via anti-V5, RBD as analyte
pKd: −log10 of the molar value.

binder | pKd
COVID19_P11_D12 (scFv, V domains shown) VH: QVQLVQSGAEVKKPGASVKVSCKASGYTFTENEMHWVRQAPGQGLEWMGIINPSGGSTSYAQKFQGRVTMTRDTSTSTVYMELSSLRSEDTAVYYCAKTRYGGNSRSRYYYYGMDVWGQGTTVTVSS VL: DIQMTQSPSSLSASVGDRVTITCRASQHISSYLNWYQQKPGKAPKLLIYAASALQSGVPSRFSGSGSGTDFTLTISSLQPEDFATYYCQQGYGTPYTFGQGTKVEIKR | > 7.30
